Numbers sourced from paper PMC6153936.

- experimental-protocol: MTT cytotoxic assay, normal cell line MDCK
- test-conditions: dog, MDCK cells (normal cell line)
value-kind: IC50 at 48 h

{"columns": ["compound", "test-result"],
 "data": [
  ["CSc1cccc(NC(=O)Nc2ccc(Oc3ncnc4[nH]ncc34)cc2)c1", "> 80 µM"],
  ["O=C(Nc1ccc(Oc2ncnc3[nH]ncc23)cc1)Nc1cc(C(F)(F)F)ccc1Cl", "> 80 µM"],
  ["COC(=O)c1cccc(NC(=O)Nc2ccc(Oc3ncnc4[nH]ncc34)cc2)c1", "> 80 µM"],
  ["Cc1cccc(NC(=O)Nc2ccc(Oc3ncnc4[nH]ncc34)cc2)c1", "> 80 µM"],
  ["CCc1cccc(NC(=O)Nc2ccc(Oc3ncnc4[nH]ncc34)cc2)c1", "> 80 µM"],
  ["O=C(Nc1ccc(Cl)cc1)Nc1ccc(Oc2ncnc3[nH]ncc23)cc1", "> 80 µM"],
  ["Cc1ccc([N+](=O)[O-])c(NC(=O)Nc2ccc(Oc3ncnc4[nH]ncc34)cc2)c1", "> 80 µM"],
  ["Cn1ncc2c(Oc3ccc(NC(=O)Nc4cccc(Cl)c4)cc3)ncnc21", "> 80 µM"],
  ["CNC(=O)c1cc(Oc2ccc(NC(=O)Nc3ccc(Cl)c(C(F)(F)F)c3)cc2)ccn1 [Sorafenib, reference compound]", "14.7 µM"],
  ["Cc1ccc(NC(=O)Nc2ccc(Oc3ncnc4[nH]ncc34)cc2)cc1C", "> 80 µM"],
  ["O=C(Nc1ccc(Oc2ncnc3[nH]ncc23)cc1)Nc1cc(C(F)(F)F)ccc1F", "23.1 µM"],
  ["O=C(Nc1ccc(Oc2ncnc3[nH]ncc23)cc1)Nc1cccc(Cl)c1", "> 80 µM"],
  ["Cc1ccc(Cl)c(NC(=O)Nc2ccc(Oc3ncnc4[nH]ncc34)cc2)c1", "> 80 µM"],
  ["N#Cc1cccc(NC(=O)Nc2ccc(Oc3ncnc4[nH]ncc34)cc2)c1", "> 80 µM"],
  ["Cn1ncc2c(Oc3ccc(NC(=O)Nc4ccc(Cl)c(C(F)(F)F)c4)cc3)ncnc21", "> 80 µM"],
  ["O=C(Nc1ccc(Oc2ncnc3[nH]ncc23)cc1)Nc1ccc(Cl)c(Cl)c1", "35.5 µM"],
  ["O=C(Nc1ccc(Oc2ncnc3[nH]ncc23)cc1)Nc1cccc([N+](=O)[O-])c1", "> 80 µM"],
  ["O=C(Nc1ccc(Oc2ncnc3[nH]ncc23)cc1)Nc1cccc(Br)c1", "> 80 µM"],
  ["O=C(Nc1ccc(Oc2ncnc3[nH]ncc23)cc1)Nc1cc(F)cc(C(F)(F)F)c1", "> 80 µM"]
]}
